Every entry's value here was drawn from ChEMBL document CHEMBL5727515.

Molecular target: Disintegrin and metalloproteinase domain-containing protein 17 (Homo sapiens, UniProt P78536)
Sequence (P78536 whole entry, the tested form may be a part): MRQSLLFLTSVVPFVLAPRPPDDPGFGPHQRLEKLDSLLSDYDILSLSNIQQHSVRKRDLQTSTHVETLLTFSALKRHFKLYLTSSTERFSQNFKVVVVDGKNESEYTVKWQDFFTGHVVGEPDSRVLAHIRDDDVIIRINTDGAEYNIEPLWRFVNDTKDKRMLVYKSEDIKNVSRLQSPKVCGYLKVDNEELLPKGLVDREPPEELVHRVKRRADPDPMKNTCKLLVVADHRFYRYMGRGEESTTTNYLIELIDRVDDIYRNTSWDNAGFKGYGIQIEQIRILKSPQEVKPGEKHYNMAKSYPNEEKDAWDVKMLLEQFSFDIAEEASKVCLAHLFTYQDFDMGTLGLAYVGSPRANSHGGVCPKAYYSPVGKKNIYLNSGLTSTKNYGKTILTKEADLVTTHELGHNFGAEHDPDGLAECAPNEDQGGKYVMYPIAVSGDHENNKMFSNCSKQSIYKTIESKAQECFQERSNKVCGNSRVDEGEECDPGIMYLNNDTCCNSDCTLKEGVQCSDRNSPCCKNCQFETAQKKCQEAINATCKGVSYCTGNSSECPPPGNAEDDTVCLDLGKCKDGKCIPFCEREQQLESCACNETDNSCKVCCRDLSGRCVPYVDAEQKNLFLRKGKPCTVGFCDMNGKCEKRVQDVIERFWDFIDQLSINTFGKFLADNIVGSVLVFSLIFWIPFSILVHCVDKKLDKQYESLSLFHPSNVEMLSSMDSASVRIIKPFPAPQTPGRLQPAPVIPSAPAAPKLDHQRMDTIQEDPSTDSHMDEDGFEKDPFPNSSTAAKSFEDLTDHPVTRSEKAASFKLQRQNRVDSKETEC
Assign IC50 to each entry below.

| compound | value.reported |
| --- | --- |
| COc1c(Cl)cc(Cl)cc1C1CCN(C(=O)CC[C@H]2NC(=O)NC2=O)CC1 | > 0.1 µM |

Please examine the following record next.
Query: Report IC50 for COc1cc(C2CCN(C(=O)CCC3(C)NC(=O)NC3=O)CC2)c(C)cc1Cl (configuration not stated) please.
Reply: > 0.1 µM
